I'd be grateful if you could share measured CC50 at 72 h for these entries.
# test: Cytotoxicity against human HuH7 infected with HCV genotype 1a cells after 3 days by calcein-AM dye based fluorescence analysis
# Assay type: cell-based, Huh-7
# assay-context: HuH7 cells infected with HCV genotype 1a

*Q* Item under review: "CCOC(=O)[C@H](C)NP(=O)(CO[C@@H](Cn1cnc2c(N)ncnc21)C(=O)OC)N[C@@H](C)C(=O)OCC" . Reported CC50 at 72 h?
*A* > 44.4 µM

*Q* Subsequent entry: "CCOC(=O)[C@H](Cc1ccccc1)NP(=O)(CO[C@@H](Cn1cnc2c(N)ncnc21)C(=O)OC)N[C@@H](Cc1ccccc1)C(=O)OCC"
*A* 18.3 µM

*Q* Subsequent entry: "CCOC(=O)[C@H](C)NC(=O)[C@H](Cn1cnc2c(N)ncnc21)OCP(=O)(N[C@@H](C)C(=O)OCC)N[C@@H](C)C(=O)OCC"
*A* > 44.4 µM

*Q* Subsequent entry: "CCCCCCCCCCCCCCCCOCCCOP(=O)(O)CO[C@@H](Cn1cnc2c(N)ncnc21)C(=O)OC"
*A* > 44.4 µM

*Q* Subsequent entry: "Nc1ncnc2c1ncn2C[C@H](OCP(=O)(O)O)C(=O)O"
*A* > 44.4 µM

*Q* Subsequent entry: CCOC(=O)[C@H](Cc1ccccc1)NP(=O)(CO[C@@H](Cn1cnc2c(N)ncnc21)C(=O)OC)Oc1ccccc1 (stereo partly specified)
*A* 42.6 µM
